// provenance: the supplement of paper PMC10307832

system: NCI-H520; assay: relative viability (nuclei count vs DMSO), 5 days (fraction); higher = more cells survive; conditions: first compound 6.325 µM
readout: relative viability
// response body must contain only the number

Known relative viability results, listed for orientation:
The recorded relative viability for entry Cc1csc(=NC2CCCCC2)n1/N=C/c1ccc(O)c(O)c1O [MIM1] + CC(=O)c1c(C)c2cnc(Nc3ccc(N4CCNCC4)cn3)nc2n(C2CCCC2)c1=O [Palbociclib] (partner 0.5 µM) equals 0.22

// sample Cc1csc(=NC2CCCCC2)n1/N=C/c1ccc(O)c(O)c1O [MIM1] + C[C@@H](Oc1cc(-c2cnn(C3CCNCC3)c2)cnc1N)c1c(Cl)ccc(F)c1Cl [Crizotinib] (partner 1 µM) , its relative viability was 0.578

relative viability measured on Cc1csc(=NC2CCCCC2)n1/N=C/c1ccc(O)c(O)c1O [MIM1] + O=C(CCCCCCC(=O)Nc1ccccc1)NO [Vorinostat] (partner 1 µM) = 0.538

Field relative viability (entry Cc1csc(=NC2CCCCC2)n1/N=C/c1ccc(O)c(O)c1O [MIM1] + CC(=O)Nc1cccc(-n2c(=O)n(C3CC3)c(=O)c3c(Nc4ccc(I)cc4F)n(C)c(=O)c(C)c32)c1 [Trametinib] (partner 0.02 µM) ) reads 0.529

# relative viability (compound: Cc1csc(=NC2CCCCC2)n1/N=C/c1ccc(O)c(O)c1O [MIM1] + CCNC(=O)c1noc(-c2cc(C(C)C)c(O)cc2O)c1-c1ccc(CN2CCOCC2)cc1 [Luminespib] (partner 0.01 µM) ) is 0.274

So, Cc1csc(=NC2CCCCC2)n1/N=C/c1ccc(O)c(O)c1O [MIM1] + COc1cccc2cc(-c3nc([C@H]4CC[C@H](C(=O)O)CC4)n4ncnc(N)c34)[nH]c12 [OSI-027] (partner 0.5 µM) ? Its relative viability was 0.24

More entries:
GET /value?item= Cc1csc(=NC2CCCCC2)n1/N=C/c1ccc(O)c(O)c1O [MIM1] + O=C(c1cc(Cc2n[nH]c(=O)c3ccccc23)ccc1F)N1CCN(C(=O)C2CC2)CC1 [Olaparib] (partner 8 µM) &field=relative viability returns 0.242
